# Tgt: Cdc7/Dbf4 (Homo sapiens (Human))
# Assay Procedure: Cdc7 Inhibition Assay
# Assay type: biochemical
# Condition Label: 11 data point; read-out: Ki (μM) 11 data point
Value Kind: Ki
Mention the unit after the number when you answer.

1) c1ccc(-n2cc(-c3ccc4[nH]ncc4c3)nn2)cc1    0.192 µM
2) Nc1n[nH]c2ccc(-c3nnn(Cc4ccccc4)c3-c3cccs3)cc12    0.0005 µM
3) O=S(=O)(Nc1n[nH]c2ccc(-c3nnn(Cc4ccccc4)c3-c3ccccc3)cc12)c1ccccc1    0.34 µM

Proceed to the following item.
[in] Name the reported Ki value associated with the compound Cc1ccccc1-c1c(-c2ccc3[nH]nc(C)c3c2)nnn1Cc1ccccc1
[out] 0.00225 µM

* * *

Ki reference
# Tgt: Cdc7/Dbf4 (Homo sapiens (Human))
# Assay Procedure: Cdc7 Inhibition Assay
# Format: biochemical
# Condition Label: 11 data point; read-out: Ki (μM) 11 data point
Give the value in µM but do not write µM after it.

1. c1ccc(Cn2cc(-c3ccc4[nH]nc(-c5cn(Cc6ccccc6)nn5)c4c3)nn2)cc1    0.0556

[in] Requested field: Ki. Item: CCCN(C(N)=O)c1n[nH]c2ccc(-c3cn(Cc4ccccc4)nn3)cc12
[out] 0.068

[in] Clc1ccc(CNc2n[nH]c3ccc(-c4nnn(Cc5ccccc5)c4C4CC4)cc23)cc1 , same question.
[out] 0.015

[in] Can you check Nc1n[nH]c2ccc(-c3nnn(Cc4ccccc4)c3CC3CCCCC3)cc12 next?
[out] 0.0082

[in] One more compound: CCCCNc1n[nH]c2ccc(-c3cn(Cc4ccccc4)nn3)cc12
[out] 0.04

[in] What would you report for Fc1ccc(Cn2cc(-c3ccc4[nH]ncc4c3)nn2)cc1 ?
[out] 0.0563

[in] # iterate: Fc1ccc(CNc2n[nH]c3ccc(-c4cn(Cc5ccccc5)nn4)cc23)c(F)c1
[out] 0.037

* * *

# Tgt: Cdc7/Dbf4 (Homo sapiens (Human), UniProt O00311)
# Sequence (O00311 whole entry): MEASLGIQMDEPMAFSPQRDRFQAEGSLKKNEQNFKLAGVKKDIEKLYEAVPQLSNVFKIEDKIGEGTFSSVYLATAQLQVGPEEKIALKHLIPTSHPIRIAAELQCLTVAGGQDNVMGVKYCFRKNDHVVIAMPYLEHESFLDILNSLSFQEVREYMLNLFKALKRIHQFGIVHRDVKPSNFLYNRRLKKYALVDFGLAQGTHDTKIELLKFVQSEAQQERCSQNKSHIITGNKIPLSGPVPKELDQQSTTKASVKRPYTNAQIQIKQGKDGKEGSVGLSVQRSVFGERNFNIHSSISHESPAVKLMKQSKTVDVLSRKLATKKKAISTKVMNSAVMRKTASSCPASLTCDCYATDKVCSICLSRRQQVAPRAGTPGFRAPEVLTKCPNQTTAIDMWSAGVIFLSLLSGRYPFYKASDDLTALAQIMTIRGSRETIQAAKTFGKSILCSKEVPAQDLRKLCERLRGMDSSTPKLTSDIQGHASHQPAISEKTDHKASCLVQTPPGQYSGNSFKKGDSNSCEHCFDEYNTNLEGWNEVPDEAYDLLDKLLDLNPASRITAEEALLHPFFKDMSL
# Sequence (Q9UBU7 whole entry partner): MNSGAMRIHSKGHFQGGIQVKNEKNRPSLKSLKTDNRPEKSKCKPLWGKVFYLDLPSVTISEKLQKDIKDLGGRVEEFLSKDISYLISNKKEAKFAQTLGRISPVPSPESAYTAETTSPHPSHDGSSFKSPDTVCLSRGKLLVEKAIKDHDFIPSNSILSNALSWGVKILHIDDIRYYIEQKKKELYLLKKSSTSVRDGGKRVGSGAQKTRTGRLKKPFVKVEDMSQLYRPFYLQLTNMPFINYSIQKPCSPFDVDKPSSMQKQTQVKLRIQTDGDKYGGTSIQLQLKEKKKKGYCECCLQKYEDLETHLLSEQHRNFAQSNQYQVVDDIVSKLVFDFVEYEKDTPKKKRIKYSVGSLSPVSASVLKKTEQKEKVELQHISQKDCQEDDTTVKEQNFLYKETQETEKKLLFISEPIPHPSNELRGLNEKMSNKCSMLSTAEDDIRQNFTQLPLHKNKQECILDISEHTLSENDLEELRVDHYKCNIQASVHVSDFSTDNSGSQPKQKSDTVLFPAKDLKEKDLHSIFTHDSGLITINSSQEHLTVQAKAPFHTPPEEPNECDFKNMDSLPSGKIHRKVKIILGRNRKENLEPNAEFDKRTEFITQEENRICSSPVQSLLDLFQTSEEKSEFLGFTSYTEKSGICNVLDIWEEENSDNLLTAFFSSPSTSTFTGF
# Assay Procedure: Cdc7 Inhibition Assay
# Type: biochemical
# Condition Label: 11 data point; read-out: Ki (μM) 11 data point
Value Kind: Ki (µM)
API: value field is a number in µM; no unit string.

The following compounds have reported results that may help.
1. Nc1n[nH]c2ccc(-c3nnn(Cc4ccccc4)c3C3CC3)cc12    0.035
2. Clc1ccc(Cn2cc(-c3ccc4[nH]ncc4c3)nn2)c(Cl)c1    0.0127

[in] Would you kindly share the measured Ki for Nc1n[nH]c2ccc(-c3nnn(Cc4ccccc4)c3-c3cccc(N4CCOCC4)c3)cc12 ?
[out] 0.068

[in] Subsequent entry: NC(=O)N(c1ccccc1Cl)c1n[nH]c2ccc(-c3nnn(Cc4ccccc4)c3C3CC3)cc12
[out] 0.022

* * *

Recorded measurements of Ki, one per entry
# Tgt: Cdc7/Dbf4 (Homo sapiens (Human))
# Assay Procedure: Cdc7 Inhibition Assay
# Type: biochemical
# Condition Label: 11 data point; read-out: Ki (μM) 11 data point
Please respond with the number in µM and leave the unit unwritten.

Known Ki results, listed for orientation:
1) O=C(CNC1CCCCC1)Nc1n[nH]c2ccc(-c3cn(Cc4ccccc4)nn3)cc12    0.5
2) NC(=O)N(Cc1ccccc1)c1n[nH]c2ccc(-c3nnn(Cc4ccccc4)c3C3CC3)cc12    0.041
3) c1ccc(CNc2n[nH]c3ccc(-c4cn(Cc5ccccc5)nn4)cc23)cc1    0.12

Turning to the following molecule.
[in] I am curious: what Ki value has been reported for O=C(Nc1n[nH]c2ccc(-c3nnn(Cc4ccccc4)c3-c3ccccc3)cc12)c1ccccc1 ?
[out] 0.0009

* * *

# Tgt: Cdc7/Dbf4 (Homo sapiens (Human), UniProt O00311)
# Assay Procedure: Cdc7 Inhibition Assay
# Type: biochemical
# Condition Label: 6 data point; read-out: Ki (μM) 6 data point
Value Kind: Ki

Use these answered entries as a reference point.
1. O=C(c1c(-c2ccc3[nH]ncc3c2)nnn1Cc1ccccc1)N1CCCCC1    > 1.23 µM
2. O=C(c1c(-c2ccc3[nH]ncc3c2)nnn1Cc1ccccc1)N1CCOCC1    > 1.23 µM
3. c1ccc(CNc2n[nH]c3ccc(-c4nnn(Cc5ccccc5)c4C4CC4)cc23)cc1    0.046 µM

[in] Request the reported Ki associated with O=C(Nc1n[nH]c2ccc(-c3nnn(Cc4ccccc4)c3C3CC3)cc12)c1cccc(F)c1
[out] 0.0009 µM

[in] Same for O=C(Nc1ccccc1)c1c(-c2ccc3[nH]ncc3c2)nnn1Cc1ccccc1
[out] > 1.23 µM

[in] Note, next up: CC(=O)N1CCN(C(=O)c2c(-c3ccc4[nH]ncc4c3)nnn2Cc2ccccc2)CC1
[out] > 1.23 µM

[in] O=C(c1cccc(Cl)c1)c1c(-c2ccc3[nH]ncc3c2)nnn1CC1CCOCC1 , same question.
[out] 0.229 µM

* * *

Reported Ki values follow for various compounds
# Tgt: Cdc7/Dbf4 (Homo sapiens (Human), UniProt O00311)
# Assay Procedure: Cdc7 Inhibition Assay
# Format: biochemical
# Condition Label: 11 data point; read-out: Ki (μM) 11 data point
Write the value in µM as a bare number.

Worked cases, Ki given:
1) c1ccc(Cn2cc(-c3ccc4[nH]nc(NCC5CC5)c4c3)nn2)cc1 [Example 321]    0.57
2) CN1CCN(c2n[nH]c3ccc(-c4cn(Cc5ccccc5)nn4)cc23)CC1 [Example 400]    0.23
3) O=S(=O)(Nc1n[nH]c2ccc(-c3nnn(Cc4ccccc4)c3C3CC3)cc12)c1ccccc1 [Example 217]    1
4) Nc1n[nH]c2ccc(-c3nnn(Cc4ccccc4)c3C3CCCCC3)cc12 [Example 402]    0.037
5) N#Cc1ccc(CNc2n[nH]c3ccc(-c4cn(Cc5ccccc5)nn4)cc23)cc1 [Example 415]    0.065
6) Clc1ccccc1CNc1n[nH]c2ccc(-c3nnn(Cc4ccccc4)c3C3CC3)cc12 [Example 222]    0.093
7) Cn1cc(-c2c(-c3ccc4[nH]nc(N)c4c3)nnn2Cc2ccccc2)cn1 [Example 189]    0.0019
8) O=C1CN(CC(=O)Nc2n[nH]c3ccc(-c4cn(Cc5ccccc5)nn4)cc23)CCN1 [Example 314]    0.18
9) Cn1ccnc1-c1n[nH]c2ccc(-c3cn(Cc4ccccc4)nn3)cc12 [Example 398]    0.489
10) O=S(=O)(Nc1n[nH]c2ccc(-c3nnn(Cc4ccccc4)c3C3CC3)cc12)c1ccc(Cl)cc1 [Example 220]    0.98

[in] Any idea what its Ki is? The compound is Nc1n[nH]c2ccc(-c3nnn(Cc4ccccc4)c3Cc3ccccc3)cc12 [Example 405]
[out] 0.0011

[in] What do you get for c1ccc(Cn2cc(-c3ccc4[nH]nc(-c5cccs5)c4c3)nn2)cc1 [Example 401] ?
[out] 0.00492

[in] Cool, now CN(C)c1ccc(-c2c(-c3ccc4[nH]nc(N)c4c3)nnn2Cc2ccccc2)cc1 [Example 185]
[out] 0.0004

[in] Try this compound too: c1ccc(Cn2cc(-c3ccc4[nH]nc(N5CCOCC5)c4c3)nn2)cc1 [Example 399]
[out] 0.63

[in] Do the same for Fc1ccc(-c2c(-c3ccc4[nH]ncc4c3)nnn2CC2CCOCC2)cc1 [Example 167] please
[out] 0.00105

[in] Try this compound next: c1ccc(Cn2cc(-c3ccc4[nH]nc(-c5ccccc5)c4c3)nn2)cc1 [Example 61]
[out] 0.0077

* * *

# Tgt: Cdc7/Dbf4 (Homo sapiens (Human), UniProt O00311)
# Assay Procedure: Cdc7 Inhibition Assay
# Assay type: biochemical
# Condition Label: 11 data point; read-out: Ki (μM) 11 data point
Reported Ki values are given for each entry in this list.
The reply should contain only the number, in µM.

Example entries begin here.
1. c1ccc(Cn2cc(-c3ccc4[nH]nc(-c5nccs5)c4c3)nn2)cc1    0.258
2. CCNC(=O)Nc1n[nH]c2ccc(-c3cn(Cc4ccccc4)nn3)cc12    0.034
3. COc1ccc(NC(=O)Nc2n[nH]c3ccc(-c4nnn(Cc5ccccc5)c4-c4ccccc4)cc23)cc1    0.013
4. Clc1ccc(CNc2n[nH]c3ccc(-c4cn(Cc5ccccc5)nn4)cc23)cc1    0.14
5. COc1ccc(CNc2n[nH]c3ccc(-c4cn(Cc5ccccc5)nn4)cc23)cc1    0.052
6. O=C(Nc1n[nH]c2ccc(-c3nnn(Cc4ccccc4)c3C3CC3)cc12)c1cccc(F)c1    0.0024

[in] Ki lookup needed for CCS(=O)(=O)Nc1n[nH]c2ccc(-c3cn(Cc4ccccc4)nn3)cc12 , thanks.
[out] 0.41

[in] Can you check O=C(Nc1nn(C(=O)c2ccccc2)c2ccc(-c3nnn(Cc4ccccc4)c3C3CC3)cc12)c1ccccc1 next?
[out] 0.11

* * *

# Lookup of reported log10 of Ki keyed by entry
# Tgt: Cdc7/Dbf4 (Homo sapiens (Human), UniProt O00311)
# Assay Procedure: Cdc7 Inhibition Assay;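 note: reaction mixtures incubated 30 min on streptavidin-coated plates, then quantified by scintillation counting, with inhibition curves fitted by non-linear regression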
# Type: biochemical
# Condition Label: 11 data point; read-out: Ki (μM) 11 data point
Recall that a logarithmic scale is used here: each number is log10 of Ki in µM.

Some entries whose results are on file:
1) CN(C)C(=O)c1n[nH]c2ccc(-c3cn(Cc4ccccc4)nn3)cc12    -0.17
2) COCC(=O)Nc1n[nH]c2ccc(-c3cn(Cc4ccccc4)nn3)cc12    -1.82
3) COC(=O)c1n[nH]c2ccc(-c3cn(Cc4ccccc4)nn3)cc12    -1.09
4) Nc1n[nH]c2ccc(-c3nnn(Cc4ccc(C(F)(F)F)cc4)c3-c3ccc(F)cc3)cc12    -0.37
5) c1ccc(Cn2cc(-c3ccc4[nH]nc(NCC5CCCCC5)c4c3)nn2)cc1    -0.46
6) CCS(=O)(=O)Nc1n[nH]c2ccc(-c3nnn(Cc4ccccc4)c3C3CC3)cc12    -0.92

[in] Item Fc1cccc(CNc2n[nH]c3ccc(-c4cn(Cc5ccccc5)nn4)cc23)c1 with Cdc7/Dbf4 (Homo sapiens (Human), UniProt O00311) - log10 of Ki?
[out] -1.42

[in] For c1ccc(Cn2nnc(-c3ccc4[nH]ncc4c3)c2-c2ccccc2)cc1 then?
[out] -3.22

[in] How about this molecule: O=C1CCCN1c1n[nH]c2ccc(-c3cn(Cc4ccccc4)nn3)cc12
[out] -0.74

[in] Again, but for Nc1n[nH]c2ccc(-c3nnn(Cc4ccccc4)c3CC3CCCC3)cc12
[out] -1.70

[in] c1ccc(Cn2cc(-c3ccc4[nH]nc(NCCN5CCOCC5)c4c3)nn2)cc1 , same question.
[out] -0.66
